Below, each entry is listed alongside its reported pEC50.
- TARGET UNDER TEST: 5-HT2C receptor (Homo sapiens)
- Sequence (P28335 33-458): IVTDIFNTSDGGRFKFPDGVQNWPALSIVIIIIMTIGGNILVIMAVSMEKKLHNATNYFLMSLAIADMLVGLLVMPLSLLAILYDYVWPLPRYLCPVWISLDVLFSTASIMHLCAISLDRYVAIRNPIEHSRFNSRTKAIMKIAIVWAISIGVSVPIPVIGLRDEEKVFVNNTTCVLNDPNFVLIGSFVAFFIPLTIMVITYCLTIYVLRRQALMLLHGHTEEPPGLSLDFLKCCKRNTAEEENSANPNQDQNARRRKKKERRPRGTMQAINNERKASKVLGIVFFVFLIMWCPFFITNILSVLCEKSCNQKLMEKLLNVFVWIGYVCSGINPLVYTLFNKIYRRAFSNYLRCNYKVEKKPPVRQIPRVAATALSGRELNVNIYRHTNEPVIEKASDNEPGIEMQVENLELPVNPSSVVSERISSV
- Sequence (P32121 whole entry partner): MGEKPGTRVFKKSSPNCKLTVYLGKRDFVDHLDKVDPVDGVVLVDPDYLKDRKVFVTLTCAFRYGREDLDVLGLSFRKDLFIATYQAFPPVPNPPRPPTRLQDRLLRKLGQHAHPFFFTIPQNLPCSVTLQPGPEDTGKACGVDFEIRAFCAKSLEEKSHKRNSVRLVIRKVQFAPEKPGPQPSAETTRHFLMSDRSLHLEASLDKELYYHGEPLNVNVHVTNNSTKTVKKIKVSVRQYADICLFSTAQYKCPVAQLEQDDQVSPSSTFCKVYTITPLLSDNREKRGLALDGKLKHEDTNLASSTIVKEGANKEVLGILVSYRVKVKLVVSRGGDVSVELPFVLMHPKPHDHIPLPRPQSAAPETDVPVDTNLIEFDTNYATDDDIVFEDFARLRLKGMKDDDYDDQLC
- ASSAY EXPLANATION: Functional activity: beta-arrestin2 recruitment to the 5-HT2C receptor in U2OS_HTR2C-β-Arrestin cells (DiscoverX)
- CONDITION: 1.5 h incubation, chemiluminescent β-galactosidase complementation readout, read-out: Potency (EC50) in functional assay
pEC50: −log10 of the molar value. Structures can show the parent of a compound that is named as a salt.

>  <MOLECULE>
CC1(C)CCN2CCNCc3cccc1c32 [Example 1]

>  <pEC50>
6.70 to 7.70

$$$$
>  <MOLECULE>
c1cc2c3c(c1)C1(CCC1)CCN3CCNC2 [Example 25, hydrochloride]

>  <pEC50>
6.70 to 7.70

$$$$
>  <MOLECULE>
c1cc2c3c(c1)C1(CCCC1)CCN3CCNC2 [Example 6]

>  <pEC50>
6.70 to 7.70

$$$$
>  <MOLECULE>
CC1(C(F)(F)F)CCN2CCNCc3cccc1c32 (single isomer, unassigned) [Example 8]

>  <pEC50>
6.70 to 7.70

$$$$
>  <MOLECULE>
CC1(C(F)(F)F)CCN2CCNCc3cccc1c32 (single isomer, unassigned) [Example 9]

>  <pEC50>
> 7.70

$$$$
>  <MOLECULE>
CC1(C)CCN2CCNCc3ccc(F)c1c32 [Example 22]

>  <pEC50>
6.70 to 7.70

$$$$
